Tested on: 454973-116-R2-J3-PDC spheroids, viability, % test/control;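 further: spheroids exposed to compounds for seven days; 100% = DMSO vehicle control viability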
Test: Anticancer human tumor 454973-116-R2-J3-PDC patient-derived pancreatic carcinoma cell line growth inhibition [GQUAD]
Settings: second compound 10 µM; first compound 1 µM; hits give low values; spheroids with HUVEC and MSC
Recorded viability, T/C by entry
Please give a number only; it is taken to be in %.

Observe how each entry below is paired with its result.
COMPOUND	ASSAY RESULT
O=c1[nH]cc(F)c(=O)[nH]1 + Cc1cnc(CNC(=O)c2c(=O)c3ccc(N4CCCN(C)CC4)nc3n3c2sc2ccccc23)cn1	48
Cc1cccc(N(C)C(=O)C2C(O)CCN2c2nc(C)cc(C(F)(F)F)c2C#N)c1 (configuration not stated) + Cc1cnc(CNC(=O)c2c(=O)c3ccc(N4CCCN(C)CC4)nc3n3c2sc2ccccc23)cn1	34.8
COc1cc(C2c3cc4c(cc3C(OC3OC5COC(C)OC5C(O)C3O)C3COC(=O)C23)OCO4)cc(OC)c1O (configuration not stated) + CN(C)c1ccc(Nc2c3ccc(NC(=O)CCN4CCCC4)cc3nc3cc(NC(=O)CCN4CCCC4)ccc23)cc1	45.5
C=CC(=O)N1CCN(c2nc(=O)n(-c3c(C)ccnc3C(C)C)c3nc(-c4c(O)cccc4F)c(F)cc23)C(C)C1 (configuration not stated) + Cc1cnc(CNC(=O)c2c(=O)c3ccc(N4CCCN(C)CC4)nc3n3c2sc2ccccc23)cn1	70.6
O=C(NO)c1cnc(N2CCN(S(=O)(=O)c3ccc4ccccc4c3)CC2)nc1 + Cc1[nH]c2ccc(F)cc2c1-c1nc2c3cccnc3c3ncccc3c2[nH]1	17.7
C#Cc1c(F)ccc2cc(O)cc(-c3ncc4c(N5CC6CCC(C5)N6)nc(OCC56CCCN5CC(F)C6)nc4c3F)c12 (configuration not stated) + Cc1[nH]c2ccc(F)cc2c1-c1nc2c3cccnc3c3ncccc3c2[nH]1	17.6

Query: Query for 454973-116-R2-J3-PDC spheroids, viability, % test/control: what viability, T/C does the record show for CC(C)n1c(=O)n(C)c2cnc3cc(F)c(-c4ccc(OCCCN5CCCCC5)nc4)cc3c21 + Cc1[nH]c2ccc(F)cc2c1-c1nc2c3cccnc3c3ncccc3c2[nH]1 ?
Result: 93.7

Query: Next entry: C#Cc1c(F)ccc2cc(O)cc(-c3ncc4c(N5CC6CCC(C5)N6)nc(OCC56CCCN5CC(F)C6)nc4c3F)c12 (configuration not stated) + CN(C)c1ccc(Nc2c3ccc(NC(=O)CCN4CCCC4)cc3nc3cc(NC(=O)CCN4CCCC4)ccc23)cc1
Result: 13.4

Query: Next entry: CC1COCCN1c1cc(-c2ccnn2C)c2ccnc(-c3ccn[nH]3)c2n1 (configuration not stated) + CN(C)c1ccc(Nc2c3ccc(NC(=O)CCN4CCCC4)cc3nc3cc(NC(=O)CCN4CCCC4)ccc23)cc1
Result: 27.6

Query: Next entry: CC(=O)O[C@H]1C(=O)[C@@]2(C)[C@H]([C@H](OC(=O)c3ccccc3)[C@]3(O)C[C@H](OC(=O)[C@H](O)[C@@H](NC(=O)c4ccccc4)c4ccccc4)C(C)=C1C3(C)C)[C@]1(OC(C)=O)CO[C@@H]1C[C@@H]2O + CN(C)c1ccc(Nc2c3ccc(NC(=O)CCN4CCCC4)cc3nc3cc(NC(=O)CCN4CCCC4)ccc23)cc1
Result: 7.09

Query: Next entry: Cc1cccc(N(C)C(=O)C2C(O)CCN2c2nc(C)cc(C(F)(F)F)c2C#N)c1 (configuration not stated) + Cc1[nH]c2ccc(F)cc2c1-c1nc2c3cccnc3c3ncccc3c2[nH]1
Result: 90.2

Query: Next entry: CC1COCCN1c1cc(-c2ccnn2C)c2ccnc(-c3ccn[nH]3)c2n1 (configuration not stated) + Cc1[nH]c2ccc(F)cc2c1-c1nc2c3cccnc3c3ncccc3c2[nH]1
Result: 18.3
